reported-endpoint: melting point

Record excerpt, results attached:
# molecule, melting point
rows = [
    ("CCCCCCCCCCCCCCCC(=O)OC1CN(C)C2(C1)C1CC3CC(C1)CC2C3 (stereo unspecified)", "50 to 53 °C"),
    ("CC(=O)C1=C(O)C(=C(C)Nc2ccc(Cl)cc2)C(=O)OC1=O", "205 to 206 °C"),
    ("COC(=O)c1cc(I)c(OC)c2c1OCO2", "162 to 164 °C"),
]

Notebook: CCOC(=O)C(Cc1ccc(C(F)(F)F)cc1)C(=O)c1ccc(F)c(F)c1 (stereo unspecified) , melting point read as 48 to 49 °C

Notebook: `COC(=O)COc1cccc2c(O)cccc12` , melting point read as 177 to 179 °C

Notebook: COC(=O)Nc1nc2cc(S(=O)CC3CCCCC3)ccc2[nH]1 (stereo unspecified) , melting point read as 272 to 274 °C

Notebook: `COCCNc1cncc(C(N)=O)c1` , melting point read as 79 to 80 °C

Notebook: `COc1c(N2CC(O)C2)c(F)cc2c(=O)c(C(=O)O)cn(C3CC3)c12` , melting point read as 246 to 250 °C

###

reported-endpoint: melting point

Record excerpt, results attached:
# molecule, result
records = [
    ("Cn1c(C(F)(F)F)ccc(-c2cc([N+](=O)[O-])c(F)cc2F)c1=O", "115 to 118 °C"),
    ("COC(=O)C=C1C(=O)N(c2ccccc2)C(=O)N1Cc1ccccc1", "130 °C"),
]

Okay, now this molecule:
Notebook: `O=c1n(CCCCl)nc2n1-c1ccccc1OC2` , melting point read as 77 to 78 °C

###

# key: entry, value: melting point

# molecule, melting point
records = [
    ("CN(CCc1cccs1)C(=O)C12CC3CC(CC(C3)C1)C2", "95 to 99 °C"),
    ("O=Cc1cc2c3c(ccc4c3c1CCC4)CCC2", "102 to 105 °C"),
    ("O=C(CSCCCCOc1ccccc1)NNC(=O)c1ccc(O)cc1", "113 to 115 °C"),
    ("CCOC(=O)COc1cc(F)ccc1C(=S)NCc1cccc([N+](=O)[O-])c1", "118 °C"),
    ("Cc1oc(-c2ccccc2)nc1CCC#N", "63 to 64 °C"),
]

Notebook: `O=c1cc2c(nn1-c1ccc(Cl)cc1F)CCCC2` , melting point read as 104 to 108 °C

Notebook: `Cc1occc1Sc1cncc2sc(C(N)=O)cc12` , melting point read as 236 to 239 °C

###

# key: entry, value: melting point

# compound, melting point
rows = [
    ("CC(=O)SCC(C(=O)NCCc1nnn[nH]1)C(F)(F)F (stereo not given)", "157 to 160 °C"),
]

Notebook: `CC(C)(C)OC(=O)Nc1ccc(F)nc1` , melting point read as 112 to 113 °C

Notebook: `COc1cc(OC)n2sc(=NS(=O)(=O)Cc3ccccc3OC(F)F)nc2n1` , melting point read as 151 to 152 °C

Notebook: `O=S(=O)(Nc1ccc2c(OCc3cccc(-c4cc(Cl)cc(Cl)c4)c3)cccc2c1)C(F)(F)F` , melting point read as 142 to 143 °C

Notebook: NC(=O)CN(c1ccc(Cl)cc1C(O)c1ccccc1Cl)S(=O)(=O)c1ccc(Cl)c(Cl)c1 (stereo not given) , melting point read as 135 °C
